TARGET_OR_SYSTEM: 5-hydroxytryptamine receptor 2C (Homo sapiens)
Sequence (P28335 whole entry): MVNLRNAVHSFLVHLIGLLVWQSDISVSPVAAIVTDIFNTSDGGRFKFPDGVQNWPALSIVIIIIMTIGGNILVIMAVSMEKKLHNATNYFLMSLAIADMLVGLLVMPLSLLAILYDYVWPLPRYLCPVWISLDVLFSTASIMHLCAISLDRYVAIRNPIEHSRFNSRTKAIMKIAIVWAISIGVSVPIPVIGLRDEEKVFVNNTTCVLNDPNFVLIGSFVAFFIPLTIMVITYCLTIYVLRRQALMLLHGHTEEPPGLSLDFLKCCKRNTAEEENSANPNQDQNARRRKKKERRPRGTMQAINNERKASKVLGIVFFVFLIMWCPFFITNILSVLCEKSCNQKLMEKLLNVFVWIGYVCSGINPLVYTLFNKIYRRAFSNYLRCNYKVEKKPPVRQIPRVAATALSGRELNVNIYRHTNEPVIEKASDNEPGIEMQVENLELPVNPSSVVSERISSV
PROCEDURE_TEXT: Displacement of [3H]mesulergine from human recombinant 5HT2C receptor expressed in CHO-K1 cells
pIC50: −log10 of the molar value.
Returns TRUE if the recorded pIC50 is greater than or equal to 7, and FALSE otherwise.

Here's what some known entries look like.
[
  {
    "COMPOUND": "O=S(=O)(c1ccc2ccccc2c1)N(CCCN1CCN(c2cccc(C(F)(F)F)c2)CC1)CC1CC1",
    "ASSIGNED_CLASS": "FALSE"
  },
  {
    "COMPOUND": "O=S(=O)(c1cccc2ccccc12)N(CCCN1CCN(c2ccccc2)CC1)CC1CC1",
    "ASSIGNED_CLASS": "FALSE"
  },
  {
    "COMPOUND": "O=S(=O)(c1ccc(C(F)(F)F)cc1)N(CCCN1CCN(c2ccccc2)CC1)CC1CC1",
    "ASSIGNED_CLASS": "FALSE"
  },
  {
    "COMPOUND": "O=S(=O)(c1ccc(F)cc1)N(CCCN1CCN(c2ccccc2)CC1)CC1CC1",
    "ASSIGNED_CLASS": "FALSE"
  },
  {
    "COMPOUND": "O=S(=O)(c1cccc2cccnc12)N(CCCN1CCN(c2ccccc2)CC1)CC1CC1",
    "ASSIGNED_CLASS": "FALSE"
  }
]

Given COc1ccc(S(=O)(=O)N(CCCN2CCN(c3ccc(F)cc3)CC2)CC2CCCCC2)cc1 , state whether its pIC50 is at least 7.
TRUE

Given COc1ccc(S(=O)(=O)N(CCCN2CCN(c3ccc(F)cc3)CC2)CC2CC2)cc1 , state whether its pIC50 is at least 7.
FALSE

Given O=S(=O)(c1ccc2ccccc2c1)N(CCCN1CCN(c2ccc(F)cc2)CC1)CC1CC1 , state whether its pIC50 is at least 7.
FALSE

Given O=S(=O)(c1ccc2ccccc2c1)N(CCCN1CCN(c2ccc(F)cc2)CC1)CC1CCCCC1 , state whether its pIC50 is at least 7.
TRUE

Given O=S(=O)(c1ccc2ccccc2c1)N(CCCN1CCN(c2ccccc2)CC1)CC1CC1 , state whether its pIC50 is at least 7.
FALSE

Given CC(CCN1CCN(c2ccccc2)CC1)NS(=O)(=O)c1ccc2ccccc2c1 (centres undefined) , state whether its pIC50 is at least 7.
FALSE

Given COc1ccc(S(=O)(=O)N(CCCN2CCN(c3ccccc3)CC2)CC2CC2)cc1 , state whether its pIC50 is at least 7.
FALSE

Given O=[N+]([O-])c1ccc(S(=O)(=O)N(CCCN2CCN(c3ccccc3)CC2)CC2CCCCC2)cc1 , state whether its pIC50 is at least 7.
TRUE
